Target: T1, human ST2L, full length, on cells (human, UniProt Q01638 19-556)
T1 sequence: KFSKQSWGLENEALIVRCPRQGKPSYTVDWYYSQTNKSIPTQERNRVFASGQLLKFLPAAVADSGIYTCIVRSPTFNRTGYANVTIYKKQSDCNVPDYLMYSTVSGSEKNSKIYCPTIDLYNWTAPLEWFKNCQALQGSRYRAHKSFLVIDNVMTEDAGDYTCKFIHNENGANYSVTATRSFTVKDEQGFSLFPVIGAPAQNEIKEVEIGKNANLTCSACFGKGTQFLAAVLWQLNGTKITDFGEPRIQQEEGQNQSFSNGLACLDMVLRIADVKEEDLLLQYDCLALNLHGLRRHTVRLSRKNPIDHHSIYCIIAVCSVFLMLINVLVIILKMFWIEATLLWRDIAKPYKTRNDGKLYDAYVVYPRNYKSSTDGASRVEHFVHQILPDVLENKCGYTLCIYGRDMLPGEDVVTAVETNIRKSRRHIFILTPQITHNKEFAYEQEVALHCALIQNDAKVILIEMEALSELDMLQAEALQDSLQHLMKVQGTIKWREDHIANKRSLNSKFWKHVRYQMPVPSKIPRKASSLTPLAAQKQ
Assay: cell-based or functional assay
endpoint.name: RGA IC50 (µg/mL)
Reply with just the number (in µg/mL).

Data request: For STLM230 (antibody, V domains shown, VH STLH201 + VL STLL274) VH: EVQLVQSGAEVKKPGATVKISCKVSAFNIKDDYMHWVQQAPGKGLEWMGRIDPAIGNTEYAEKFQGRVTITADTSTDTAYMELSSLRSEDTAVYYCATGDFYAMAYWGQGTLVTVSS VL: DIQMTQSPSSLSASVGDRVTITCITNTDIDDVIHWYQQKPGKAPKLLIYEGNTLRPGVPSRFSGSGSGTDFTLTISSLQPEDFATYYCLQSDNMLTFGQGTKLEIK , what is its reported RGA IC50?
Data returned: 0.15

Data request: Entry STLM232 (antibody, V domains shown, VH STLH201 + VL STLL272) VH: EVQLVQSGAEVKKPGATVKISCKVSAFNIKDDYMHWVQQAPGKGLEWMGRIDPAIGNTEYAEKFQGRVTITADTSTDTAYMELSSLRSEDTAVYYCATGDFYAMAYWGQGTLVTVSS VL: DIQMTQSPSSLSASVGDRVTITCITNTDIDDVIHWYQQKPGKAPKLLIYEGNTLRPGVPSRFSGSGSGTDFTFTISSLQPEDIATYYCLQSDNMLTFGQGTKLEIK please
Data returned: 0.15

Data request: Entry STLM219 (antibody, V domains shown, frameworks VH3-23 / Vk-L6) VH: EVQLLESGGGLVQPGGSLRLSCAASGFTFSGYDMFWVRQAPGKGLEWVSDIGGEGGSTNYADSVKGRFTISRDNSKNTLYLQMNSLRAEDTAVYYCARDPWSTEGSFFVLDYWGQGTLVTVSS VL: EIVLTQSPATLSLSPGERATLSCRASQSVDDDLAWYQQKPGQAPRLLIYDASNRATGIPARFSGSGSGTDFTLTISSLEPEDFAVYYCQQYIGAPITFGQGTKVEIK please
Data returned: 3.16

Data provenance: patent US20170066831A1
